Data credit: PubChem BioAssay AID504573

// CC50 lookup, one value per entry
System: host cell cytotoxicity, % cell control, 5% serum
TEST_PROTOCOL: viability loss in CCR5-tropic fusion assay cells – cell-based, 5% serum, set 2, cytotoxicity control for HIV-1 antiviral lead project, dose response (AID 504573)

| CHEMICAL_SMILES | TARGET_SYSTEM | CC50 |
| --- | --- | --- |
| COc1ccc(CCn2c(O)cc3nn(-c4nc5ccccc5s4)c(=O)c-3c2C)cc1 | host cell cytotoxicity, % cell control, 5% serum | 7.2 µM |
| Cc1c2c(=O)n(-c3nc4ccccc4s3)nc-2cc(O)n1Cc1cccs1 | host cell cytotoxicity, % cell control, 5% serum | 5.94 µM |
| Cc1c2c(=O)n(-c3nc4ccccc4s3)nc-2cc(O)n1Cc1ccncc1 | host cell cytotoxicity, % cell control, 5% serum | 5.07 µM |
| COc1ccc(Cn2c(O)cc3nn(-c4nc5ccccc5s4)c(=O)c-3c2C)cc1 | host cell cytotoxicity, % cell control, 5% serum | 5.15 µM |
| COc1ccccc1Cn1c(O)cc2nn(-c3nc4ccccc4s3)c(=O)c-2c1C | host cell cytotoxicity, % cell control, 5% serum | 8.08 µM |

* * *

System: host cell cytotoxicity, % cell control, 5% serum
TEST_PROTOCOL: viability loss in CCR5-tropic fusion assay cells – cell-based, 5% serum, set 2, cytotoxicity control for HIV-1 antiviral lead project, dose response (AID 504573)
Let's look at some compounds and their measured CC50.
PROPERTY_LABEL: CC50

| CHEMICAL_SMILES | RESULT |
| --- | --- |
| Cc1c2c(=O)n(-c3nc4ccccc4s3)nc-2cc(O)n1CCC(C)C | 5.64 µM |
| Cc1c2c(=O)n(-c3nc4ccccc4s3)nc-2cc(O)n1Cc1cccnc1 | 3.89 µM |
| Cc1c2c(=O)n(-c3nc4ccccc4s3)nc-2cc(O)n1Cc1ccc(F)cc1 | 4.4 µM |
| Cc1c2c(=O)n(-c3nc4ccccc4s3)nc-2cc(O)n1CCc1ccc(O)cc1 | 3.74 µM |
| Cc1c2c(=O)n(-c3nc4ccccc4s3)nc-2cc(O)n1Cc1ccccc1Cl | 4.34 µM |
| Cc1c2c(=O)n(-c3nc4ccccc4s3)nc-2cc(O)n1Cc1ccccc1 | 5.4 µM |
| Cc1c2c(=O)n(-c3nc4ccccc4s3)nc-2cc(O)n1CCc1cccs1 | 5.51 µM |
| Cc1c2c(=O)n(-c3nc4ccccc4s3)nc-2cc(O)n1C1CC1 | 4.98 µM |
